Assay: PFAS levels in serum samples of airport employees (LC/MS/MS)
Conditions: 2nd sampling (October 2018), count 17
Classes (Serum PFAS level, 25 percentile): group A = under 0.3, group B = from 0.3 up to 8, group C = 8 and over

# Compound, Class label
data = [
    ("O=S(=O)(O)C(F)(F)C(F)(F)C(F)(F)C(F)(F)C(F)(F)F", "group B"),
    ("O=C(O)C(F)(F)C(F)(F)C(F)(F)C(F)(F)C(F)(F)F", "group A"),
    ("O=C(O)C(F)(F)C(F)(F)C(F)(F)C(F)(F)C(F)(F)C(F)(F)F", "group A"),
    ("O=S(=O)(O)C(F)(F)C(F)(F)C(F)(F)C(F)(F)F", "group A"),
    ("O=S(=O)(O)C(F)(F)C(F)(F)C(F)(F)C(F)(F)C(F)(F)C(F)(F)F", "group C"),
    ("O=S(=O)(O)C(F)(F)C(F)(F)C(F)(F)C(F)(F)C(F)(F)C(F)(F)C(F)(F)F", "group B"),
    ("O=C(O)C(F)(F)C(F)(F)C(F)(F)C(F)(F)C(F)(F)C(F)(F)C(F)(F)F", "group C"),
    ("O=S(=O)(O)C(F)(F)C(F)(F)C(F)(F)C(F)(F)C(F)(F)C(F)(F)C(F)(F)C(F)(F)F", "group B"),
    ("O=S(=O)(O)C(F)(C(F)(F)F)C(F)(F)C(F)(F)C(F)(F)C(F)(F)C(F)(F)C(F)(F)F (stereo not drawn) [1m-PFOS, perfluoro-1-methylheptanesulfonate]", "group B"),
]

----------
This listing pairs compounds with measured Elimination rate.
Assay: Individual serum elimination rate and half-life (linear regression per employee)
Settings: individual estimate, subject 10, 5 samples

# Compound, Unit label, Elimination rate
data = [
    ("O=C(O)C(F)(F)C(F)(F)C(F)(F)C(F)(F)C(F)(F)F", "yearly", 0.4),
    ("O=S(=O)(O)C(F)(F)C(F)(F)C(F)(F)C(F)(F)C(F)(F)F", "yearly", 0.6),
    ("O=S(=O)(O)C(F)(F)C(F)(F)C(F)(F)C(F)(F)F", "yearly", 3.8),
    ("O=S(=O)(O)C(F)(F)C(F)(F)C(F)(F)C(F)(F)C(F)(F)C(F)(F)C(F)(F)F", "yearly", 0.4),
    ("O=S(=O)(O)C(F)(C(F)(F)F)C(F)(F)C(F)(F)C(F)(F)C(F)(F)C(F)(F)C(F)(F)F (stereo not drawn) [1m-PFOS, perfluoro-1-methylheptanesulfonate]", "yearly", 0.6),
    ("O=S(=O)(O)C(F)(F)C(F)(F)C(F)(F)C(F)(F)C(F)(F)C(F)(F)C(F)(F)C(F)(F)F", "yearly", "−0.2"),
    ("O=C(O)C(F)(F)C(F)(F)C(F)(F)C(F)(F)C(F)(F)C(F)(F)F", "yearly", 2.2),
    ("O=S(=O)(O)C(F)(F)C(F)(F)C(F)(F)C(F)(F)C(F)(F)C(F)(F)F", "yearly", 0.4),
    ("O=C(O)C(F)(F)C(F)(F)C(F)(F)C(F)(F)C(F)(F)C(F)(F)C(F)(F)F", "yearly", 0.3),
]

----------
Here the recorded Specific gravity adjusted urinary level, Median is given for each entry.
Test: PFAS levels in urine samples of airport employees, specific-gravity adjusted (LC/MS/MS)
Assay type: in vivo, human
Settings: 3rd sampling (November, 2018), count 16
Measured metric: Specific gravity adjusted urinary level, Median (ng/mL)

# Molecule, Measured
measured = [
    ("O=S(=O)(O)C(F)(F)C(F)(F)C(F)(F)C(F)(F)C(F)(F)C(F)(F)F", 0.07),
    ("O=S(=O)(O)C(F)(F)C(F)(F)C(F)(F)C(F)(F)C(F)(F)C(F)(F)C(F)(F)C(F)(F)F", 0.01),
    ("O=C(O)C(F)(F)C(F)(F)C(F)(F)C(F)(F)C(F)(F)C(F)(F)C(F)(F)F", 0.03),
    ("O=C(O)C(F)(F)C(F)(F)C(F)(F)C(F)(F)C(F)(F)C(F)(F)F", 0.02),
    ("O=S(=O)(O)C(F)(F)C(F)(F)C(F)(F)C(F)(F)C(F)(F)F", 0.07),
]
